# measured_on: Transthyretin (Homo sapiens)
# protocol_text: Inhibition of wild-type Transthyretin (unknown origin) expressed in Escherichia coli expression system assessed as acid mediated fibril formation at 7.2 uM measured after 72 hrs by UV-vis spectrophotometry
# Parameters: scale not given: the % may be the effect or the level left
endpoint_name: Activity
Kindly report the value followed by its unit.

Check out these entries, answers already filled in.
{"mol": "Cc1cc(/C=C/c2c(C)c3ccc(O)cc3n(C)c2=O)cc(C)c1O", "Activity": "5.9%"}
{"mol": "Cc1cc(/C=C/c2c(C)c3ccc(N)cc3n(C)c2=O)cc(C)c1O", "Activity": "3.4%"}
{"mol": "COc1cc2c(C)c(CCc3cc(C)c(O)c(C)c3)c(=O)n(C)c2cc1N", "Activity": "2.5%"}

Entry Cc1cc(CCc2c(C)c3ccc(N)cc3n(C)c2=O)cc(C)c1O ; Activity = 2.3%

Cc1n[nH]c(C)c1/C=C/c1c(C)c2ccc(N)cc2n(C)c1=O yielded Activity of 1.8%

Looking up Cc1cc(CCc2c(C)c3ccc(O)cc3n(C)c2=O)cc(C)c1O , I found its Activity recorded as 3.1%

---

# protocol_text: Metabolic stability in human liver microsome assessed as half life at 1 uM by LC-MS/MS analysis
# Format: ADME
# measurement_setup: liver microsomes
endpoint_name: half-life at 1 µM (h)
State the answer as a number, implicitly in h.

{"mol": "COc1cc2c(C)c(/C=C/c3cc(C)c(O)c(C)c3)c(=O)n(C)c2cc1N", "half-life at 1 µM / h": 1.01}

As a next step, examine the compound that follows.
The reported half-life at 1 µM of the compound Cc1cc(/C=C/c2c(C)c3ccc(N)cc3n(C)c2=O)cc(C)c1O was 1.59

---

Collected Activity values appear next to each entry.
# Test system: Transthyretin (Homo sapiens), P02766 [V50M]
# protocol_text: Inhibition of Transthyretin V30M mutant (unknown origin) assessed as acid mediated fibril formation at 1.8 uM measured after 72 hrs by UV-vis spectrophotometry
# Design: scale not given: the % may be the effect or the level left

{"mol": "COc1cc2c(C)c(/C=C/c3cc(C)c(O)c(C)c3)c(=O)n(C)c2cc1N", "Activity": "55.3%"}
{"mol": "Cc1cc(CCc2c(C)c3ccc(N)cc3n(C)c2=O)cc(C)c1O", "Activity": "54.8%"}

GET /values?item= Cc1cc(/C=C/c2c(C)c3ccc(N)cc3n(C)c2=O)cc(C)c1O &system= Transthyretin (Homo sapiens), P02766 [V50M] returns Activity: 49.6%

Activity for Transthyretin (Homo sapiens), P02766 [V50M] with input Cc1cc(CCc2c(C)c3ccc(O)cc3n(C)c2=O)cc(C)c1O equals 56.6%

---

List of remaining at 0.5 h, 1 µM values.
# protocol_text: Metabolic stability in human liver microsome assessed as percentage of compound remaining at 1 uM measured after 30 min by LC-MS/MS analysis
# Type: ADME
# measurement_setup: liver microsomes, read-out: Stability
State the answer as a number, implicitly in %.

{"mol": "Cc1cc(/C=C/c2c(C)c3ccc(N)cc3n(C)c2=O)cc(C)c1O", "value_units": "%", "remaining at 0.5 h, 1 µM": 76.9}

--- query ---
For record COc1cc2c(C)c(/C=C/c3cc(C)c(O)c(C)c3)c(=O)n(C)c2cc1N the listed remaining at 0.5 h, 1 µM is 71.5

---

Activity values for the molecules below.
# Tested on: Transthyretin (Homo sapiens), P02766 [V50M]
# protocol_text: Inhibition of Transthyretin V30M mutant (unknown origin) assessed as acid mediated fibril formation at 3.6 uM measured after 72 hrs by UV-vis spectrophotometry
# Parameters: scale not given: the % may be the effect or the level left
Give your result in % as a bare value.

{"mol": "Cc1cc(/C=C/c2c(C)c3ccc(N)cc3n(C)c2=O)cc(C)c1O", "Activity (%)": 16.7}
{"mol": "COc1cc2c(C)c(/C=C/c3cc(C)c(O)c(C)c3)c(=O)n(C)c2cc1N", "Activity (%)": 22.9}
{"mol": "O=C(O)c1ccc2nc(-c3cc(Cl)cc(Cl)c3)oc2c1", "Activity (%)": 15.9}
{"mol": "Cc1cc(CCc2c(C)c3ccc(O)cc3n(C)c2=O)cc(C)c1O", "Activity (%)": 26.5}

Let's switch to this molecule now.
molecule Cc1cc(CCc2c(C)c3ccc(N)cc3n(C)c2=O)cc(C)c1O , Activity observed: 22.1

---

# protocol_text: Metabolic stability in rat liver microsome assessed as half life at 1 uM by LC-MS/MS analysis
# Format: ADME
# measurement_setup: liver microsomes
endpoint_name: half-life at 1 µM (min)
Give your result in min as a bare value.

{"mol": "Cc1cc(/C=C/c2c(C)c3ccc(N)cc3n(C)c2=O)cc(C)c1O", "endpoint_name": "half-life at 1 µM", "value_units": "min", "obs_value": 36.2}

The record that follows has no half-life at 1 µM shown yet.
Memo: COc1cc2c(C)c(/C=C/c3cc(C)c(O)c(C)c3)c(=O)n(C)c2cc1N , reported half-life at 1 µM: 45.5

---

# protocol_text: Metabolic stability in rat plasma assessed as half life at 1 uM by LC-MS/MS analysis
# Type: ADME, cell-free
endpoint_name: half-life at 1 µM (h)
Form entry: value (h) — number only.

COc1cc2c(C)c(/C=C/c3cc(C)c(O)c(C)c3)c(=O)n(C)c2cc1N yielded half-life at 1 µM of 2.33

---

# measured_on: UniProt P02766
# protocol_text: Inhibition of urea-induced Transthyretin denaturation in human plasma preincubated for 1 hr followed by urea addition by Western blot analysis
# Assay type: cell-free
# key: entry, value: pIC50
Quick note: pIC50 values are minus log10 of concentrations in mol/L.

Example entries and their recorded answers appear below.
{"mol": "Cc1cc(CCc2c(C)c3ccc(O)cc3n(C)c2=O)cc(C)c1O", "pIC50": 4.86}
{"mol": "Cc1cc(CCc2c(C)c3ccc(N)cc3n(C)c2=O)cc(C)c1O", "pIC50": 4.84}
{"mol": "Cc1cc(/C=C/c2c(C)c3ccc(N)cc3n(C)c2=O)cc(C)c1O", "pIC50": 5.51}

Now take the following compound into account.
pIC50 measured on COc1cc2c(C)c(/C=C/c3cc(C)c(O)c(C)c3)c(=O)n(C)c2cc1N = 4.94

---

# protocol_text: Metabolic stability in rat plasma assessed as percentage of compound remaining at 1 uM measured after 1 hr by LC-MS/MS analysis
# Assay type: ADME, cell-free
# measurement_setup: read-out: Stability
endpoint_name: remaining at 1 h, 1 µM (%)
Please give a number only; it is taken to be in %.

Entry COc1cc2c(C)c(/C=C/c3cc(C)c(O)c(C)c3)c(=O)n(C)c2cc1N , remaining at 1 h, 1 µM reported as 86.8

---

# measured_on: Transthyretin (Homo sapiens)
# protocol_text: Inhibition of wild-type Transthyretin (unknown origin) expressed in Escherichia coli expression system assessed as acid mediated fibril formation at 7.2 uM measured after 72 hrs by UV-vis spectrophotometry
# Parameters: scale not given: the % may be the effect or the level left
endpoint_name: Activity (%)
Give the value in % but do not write % after it.

For orientation, consider the following solved cases.
{"mol": "COc1cc2c(C)c(/C=C/c3cc(C)c(O)c(C)c3)c(=O)n(C)c2cc1N", "measured_on": "Transthyretin (Homo sapiens)", "Activity (%)": 6}
{"mol": "COc1cc2c(C)c(/C=C/c3c(C)n[nH]c3C)c(=O)n(C)c2cc1N", "measured_on": "Transthyretin (Homo sapiens)", "Activity (%)": 14.3}
{"mol": "Cc1n[nH]c(C)c1CCc1c(C)c2ccc(N)cc2n(C)c1=O", "measured_on": "Transthyretin (Homo sapiens)", "Activity (%)": 11.6}

Now take the following compound into account.
Let me check: O=C(O)c1ccc2nc(-c3cc(Cl)cc(Cl)c3)oc2c1 , system Transthyretin (Homo sapiens), measured Activity is 3.6

---

# measured_on: Transthyretin (Homo sapiens, UniProt P02766)
# protocol_text: Inhibition of wild-type Transthyretin (unknown origin) expressed in Escherichia coli expression system assessed as acid mediated fibril formation at 3.6 uM measured after 72 hrs by UV-vis spectrophotometry
# Design: scale not given: the % may be the effect or the level left
Rule: Activity below 20% gives fulfilled, anything at or above gives not fulfilled.

Worked set:
{"mol": "COc1cc2c(C)c(CCc3cc(C)c(O)c(C)c3)c(=O)n(C)c2cc1N", "class_label": "not fulfilled"}
{"mol": "Cc1n[nH]c(C)c1/C=C/c1c(C)c2ccc(N)cc2n(C)c1=O", "class_label": "not fulfilled"}
{"mol": "Cc1cc(CCc2c(C)c3ccc(O)cc3n(C)c2=O)cc(C)c1O", "class_label": "not fulfilled"}
{"mol": "Cc1cc(CCc2c(C)c3ccc(N)cc3n(C)c2=O)cc(C)c1O", "class_label": "fulfilled"}
{"mol": "Cc1cc(/C=C/c2c(C)c3ccc(N)cc3n(C)c2=O)cc(C)c1O", "class_label": "fulfilled"}

*Q* Here's an entry: Cc1n[nH]c(C)c1CCc1c(C)c2ccc(N)cc2n(C)c1=O . Is its Activity below 20%?
*A* not fulfilled

*Q* Does this compound meet the criterion Activity < 20%? COc1cc2c(C)c(/C=C/c3cc(C)c(O)c(C)c3)c(=O)n(C)c2cc1N
*A* fulfilled

*Q* # TODO verify Activity < 20% strictly for this compound: Cc1cc(/C=C/c2c(C)c3ccc(O)cc3n(C)c2=O)cc(C)c1O
*A* not fulfilled
